Experiment: Total drug level in rat plasma at 3 mg/kg, po
Assay type: ADME, organism-based
Details: in vivo
Recorded Endpoint: concentration (µM)
Numeric only. Scale: µM

Endpoint output: concentration of `COc1ccc(F)c(-c2ccc3c(c2)CC[C@H]3Oc2cccc([C@H](C3CC3)[C@H](C)C(=O)O)c2)c1` . Value?
4.47

* * *

Test: Drug level in Wistar Han rat assessed as unbound fraction at 1 mg/kg, iv or 2 mg/kg, po
Type: ADME, organism-based
Conditions: in vivo
Recorded Endpoint: Fu (%)
Numeric only. Scale: %

COc1ccc(F)c(-c2ccc3c(c2)CC[C@H]3Oc2cccc([C@H](C3CC3)[C@H](C)C(=O)O)c2F)c1 : 0.02
COc1ccc(F)c(-c2ccc3c(c2)CC[C@H]3Oc2cccc([C@H](C3CC3)[C@H](C)C(=O)O)c2)c1 : 0.01
COc1cc(-c2ccc3c(c2)CC[C@H]3Oc2cccc([C@H](C3CC3)[C@H](C)C(=O)O)c2F)c(F)cn1 : 0.05

Consider the record given below.
Endpoint output: Fu of `COc1cc(-c2ccc3c(c2)CC[C@H]3Oc2cccc([C@H](C3CC3)[C@H](C)C(=O)O)c2)c(F)cn1` . Value?
0.03

* * *

log10 fEC50 by entry:
Target: Free fatty acid receptor 1 (Homo sapiens)
Sequence (O14842 whole entry): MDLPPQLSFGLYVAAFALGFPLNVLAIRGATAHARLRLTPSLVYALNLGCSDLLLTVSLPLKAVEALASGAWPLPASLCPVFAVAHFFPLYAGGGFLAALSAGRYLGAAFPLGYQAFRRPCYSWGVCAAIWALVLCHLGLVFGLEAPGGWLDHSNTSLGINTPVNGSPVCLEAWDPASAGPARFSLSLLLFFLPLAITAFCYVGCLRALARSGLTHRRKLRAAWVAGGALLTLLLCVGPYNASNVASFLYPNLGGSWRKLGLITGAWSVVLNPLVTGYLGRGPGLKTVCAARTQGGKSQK
Assay: Positive allosteric modulation of recombinant human GPR40 expressed in HEK293 cells assessed as increase in [3H]-myo-inositol phosphate accumulation measured after 60 mins in presence of 100% human serum by microbeta counting method
Assay type: functional, cell-based
Field: value | Transform: log10 | Quantity: fEC50 | Unit: nM

Identify the measured log10 fEC50 of `COc1ccc(F)c(-c2ccc3c(c2)OC[C@@H]3Oc2cccc([C@@H](CC(=O)O)C3CC3)c2)c1` for Free fatty acid receptor 1 (Homo sapiens).
1.82

Identify the measured log10 fEC50 of `COc1ccc(F)c(-c2ccc3c(c2)CC[C@H]3Oc2cccc([C@@H](CC(=O)O)C3CC3)c2)c1` for Free fatty acid receptor 1 (Homo sapiens).
0.57

Identify the measured log10 fEC50 of `COc1cc(-c2ccc3c(c2)CC[C@H]3Oc2cccc([C@H](C3CC3)[C@H](C)C(=O)O)c2)ccn1` for Free fatty acid receptor 1 (Homo sapiens).
0.51

Identify the measured log10 fEC50 of `COc1ccc(F)c(-c2cc3c(cn2)[C@H](Oc2cccc([C@H](C4CC4)[C@H](C)C(=O)O)c2)CC3)c1` for Free fatty acid receptor 1 (Homo sapiens).
0.63

Identify the measured log10 fEC50 of `COc1ccc(F)c(-c2ccc(COc3cccc([C@@H](CC(=O)O)C4CC4)c3)cc2C2=CCCC2(C)C)c1` for Free fatty acid receptor 1 (Homo sapiens).
-1.22

Identify the measured log10 fEC50 of `COc1cc(-c2ccc3c(c2)CC[C@H]3Oc2cccc([C@H](C3CC3)[C@H](C)C(=O)O)c2F)c(F)cn1` for Free fatty acid receptor 1 (Homo sapiens).
-1.10

Identify the measured log10 fEC50 of `COc1ccc(F)c(-c2cnc3c(c2)CC[C@H]3Oc2cccc([C@H](C3CC3)[C@H](C)C(=O)O)c2)c1` for Free fatty acid receptor 1 (Homo sapiens).
0.89

Identify the measured log10 fEC50 of `COc1ccc(F)c(-c2ccc3c(c2C2=CCCC2(C)C)CC[C@H]3Oc2cccc([C@H](C3CC3)[C@H](C)C(=O)O)c2)c1` for Free fatty acid receptor 1 (Homo sapiens).
0.36

Identify the measured log10 fEC50 of `COc1ccc(F)c(-c2ccc3c(c2)CC[C@H]3Oc2cccc([C@H](C3CC3)[C@H](C)C(=O)O)c2F)c1` for Free fatty acid receptor 1 (Homo sapiens).
-1.52
